# Test system: OVCAR-8 ovarian
# assay name: NCI-60 one-dose screen, 48 h (100 = growth as untreated, 0 = no growth, -100 = all killed)
# assay conditions: 10 µM unless noted
About 83,000 compounds went through this panel and 20% of them were active in at least one assay; those are over-represented in the sample as a whole.
# binarize growth: threshold 20% inclusive, high side Fulfilled, low side Not fulfilled

{"compound": "O=C(Cc1ccc(F)cc1)c1ccccc1", "label value": "Fulfilled"}

-- ask // inclusive: growth at least 20%? input: COc1ccc2c(c1)CC[C@@H]1[C@@H]2CC[C@]2(C)C3C(=CCC4C(=O)N(c5ccccc5)C(=O)C43)C[C@@H]12 (some centres undefined)
-- reply Fulfilled

-- ask Please check the record Cc1ccc(-c2nc3nc(-c4ccc(F)cc4)nc(N4CCCNCC4)c3o2)cc1 and state if its growth is at or above 20%.
-- reply Not fulfilled

-- ask Given the entry CCN(CC)CC(=O)Nc1ccc2ncnc(Nc3ccc(Oc4cccc(F)c4)c(Cl)c3)c2c1 , answer whether its growth meets or surpasses 20%.
-- reply Fulfilled

-- ask Reported growth reaches at least 20% for Cc1ccc(-c2nc([P+](c3ccccc3)(c3ccccc3)c3ccccc3)c(Nc3ccccc3)o2)cc1 ?
-- reply Not fulfilled

-- ask Decide: is the reported value of growth for Cc1cccc(-c2nnc(SCC(=O)Nc3ncc(Cc4ccccc4)s3)n2N2C(=O)CSC2=S)c1 equal to or greater than 20%?
-- reply Fulfilled
